# system.tested: ENPP1 (Homo sapiens, UniProt P22413)
# Sequence (P22413 whole entry, species assumed): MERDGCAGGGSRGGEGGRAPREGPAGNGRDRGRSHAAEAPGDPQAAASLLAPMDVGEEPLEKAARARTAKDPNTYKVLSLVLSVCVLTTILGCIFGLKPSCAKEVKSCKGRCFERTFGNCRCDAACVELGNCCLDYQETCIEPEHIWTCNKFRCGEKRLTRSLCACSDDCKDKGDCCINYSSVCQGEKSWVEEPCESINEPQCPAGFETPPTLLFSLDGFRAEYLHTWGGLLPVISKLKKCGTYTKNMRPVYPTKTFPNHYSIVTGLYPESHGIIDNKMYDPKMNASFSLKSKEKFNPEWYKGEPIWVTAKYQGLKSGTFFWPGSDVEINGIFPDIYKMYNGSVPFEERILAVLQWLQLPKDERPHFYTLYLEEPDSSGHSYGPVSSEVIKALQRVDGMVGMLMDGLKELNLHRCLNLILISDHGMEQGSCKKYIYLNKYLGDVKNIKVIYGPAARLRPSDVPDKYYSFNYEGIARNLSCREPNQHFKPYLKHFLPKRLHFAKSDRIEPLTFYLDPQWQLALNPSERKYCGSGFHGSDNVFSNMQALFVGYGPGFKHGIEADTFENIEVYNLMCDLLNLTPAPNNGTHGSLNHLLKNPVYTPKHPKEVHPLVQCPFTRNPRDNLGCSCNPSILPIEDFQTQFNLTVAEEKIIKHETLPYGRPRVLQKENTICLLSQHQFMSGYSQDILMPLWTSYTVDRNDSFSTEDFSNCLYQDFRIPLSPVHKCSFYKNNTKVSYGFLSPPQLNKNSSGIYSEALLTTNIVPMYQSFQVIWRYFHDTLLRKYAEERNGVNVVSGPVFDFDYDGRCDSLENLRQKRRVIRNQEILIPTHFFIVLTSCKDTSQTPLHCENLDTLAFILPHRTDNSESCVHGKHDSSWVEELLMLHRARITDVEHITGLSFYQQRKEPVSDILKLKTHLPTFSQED
measured.metric: pKd
Formally, pKd is defined as -log10 of the concentration c, with c in mol/L.

Name the reported pKd value associated with the compound Cc1c(S(=O)(=O)O)oc2c1C(=O)C(=O)c1c-2ccc2c1CCCC2(C)C [STS, Sodium tanshinone IIA sulfonate]
4.57

====

# system.tested: FHIT (Homo sapiens, UniProt P49789)
# Construct: GST (N, cleaved yes); made in house; host or cells: E. coli BL21 (DE3)
# Sequence (P49789 whole entry): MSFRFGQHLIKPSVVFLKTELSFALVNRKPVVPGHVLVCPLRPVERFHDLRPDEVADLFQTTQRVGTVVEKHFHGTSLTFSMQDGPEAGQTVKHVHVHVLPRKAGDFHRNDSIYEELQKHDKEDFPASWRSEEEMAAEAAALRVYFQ
# experiment.summary: Fluorescent thin layer enzyme assay with ApppBODIPY (FHIT)
# Format: biochemical
# conditions.used: 10 nM Fhit, 5 µM ApppBODIPY, TLC; read-out: IC50, FHIT hydrolase activity (TLC assay)
pIC50: −log10 of the molar value.
Kindly state pIC50 for each of the entries shown.

Name the reported pIC50 value associated with the molecule `Cc1coc2c1C(=O)C(=O)c1c-2ccc2c(C)cccc12`
5.22 to 5.40

`C[C@H]1COC2=C1C(=O)C(=O)c1c2ccc2c1CCCC2(C)C` , same question.
5.22 to 5.40

`Cc1coc2c1C(=O)C(=O)c1c-2ccc2c1CCCC2(C)C` , same question.
5.22 to 5.40
